- ASSAY_OVERVIEW: Metabolic stability in human liver microsomes (HLM)
- Assay type: in vitro ADME
- EXPERIMENTAL_SETUP: both sexes, human, microsomes, pH 7.4, 0.50 mg protein per mL
EXPERIMENTAL_ENDPOINT: microsomal CLint at 1 μM

- SMI: "CCN(CC)C(=O)[C@@H]1C=C2c3cccc4[nH]c(Br)c(c34)C[C@H]2N(C)C1"
  EXPERIMENTAL_ENDPOINT: "microsomal CLint at 1 μM"
  RESULT: "57.4 µL/min/mg"

* * *

- ASSAY_OVERVIEW: Metabolic stability in human liver microsomes (HLM)
- Type: in vitro ADME
- EXPERIMENTAL_SETUP: both sexes, human, pooled human liver microsomes, pH 7.4, 0.50 mg protein per mL
- Source text: HLM Stability. Pooled HLM from adult male and female donors (Corning 452117) were used.
EXPERIMENTAL_ENDPOINT: half-life at 1 μM (min)

- MOLECULE: "CCCN1C[C@H](C(=O)N[C@H](C)CC)C=C2c3cccc4[nH]c(Br)c(c34)C[C@H]21"
  EXPERIMENTAL_ENDPOINT: "half-life at 1 μM"
  VALUE_COMPARATOR: "="
  RESULT_NUMBER: 3.2
- MOLECULE: "CCCN1C[C@H](C(=O)N(CC)CC)C=C2c3cccc4[nH]c(Br)c(c34)C[C@H]21"
  EXPERIMENTAL_ENDPOINT: "half-life at 1 μM"
  VALUE_COMPARATOR: "="
  RESULT_NUMBER: 9.9
- MOLECULE: "CC[C@@H](C)NC(=O)[C@@H]1C=C2c3cccc4[nH]cc(c34)C[C@H]2N(CC)C1"
  EXPERIMENTAL_ENDPOINT: "half-life at 1 μM"
  VALUE_COMPARATOR: "="
  RESULT_NUMBER: 22.2
- MOLECULE: "CCN(CC)C(=O)[C@@H]1C=C2c3cccc4c3C(CN4)C[C@H]2N(C)C1 (mixture of isomers)"
  EXPERIMENTAL_ENDPOINT: "half-life at 1 μM"
  VALUE_COMPARATOR: ">"
  RESULT_NUMBER: 145
- MOLECULE: "CN1C[C@H](C(=O)N2CCCC2)C=C2c3cccc4[nH]cc(c34)C[C@H]21"
  EXPERIMENTAL_ENDPOINT: "half-life at 1 μM"
  VALUE_COMPARATOR: ">"
  RESULT_NUMBER: 145
- MOLECULE: "CCC[C@@H](C)NC(=O)[C@@H]1C=C2c3cccc4[nH]c(Br)c(c34)C[C@H]2N(C)C1"
  EXPERIMENTAL_ENDPOINT: "half-life at 1 μM"
  VALUE_COMPARATOR: "="
  RESULT_NUMBER: 7.9
- MOLECULE: "CC[C@@H](C)NC(=O)[C@@H]1C=C2c3cccc4[nH]cc(c34)C[C@H]2N(CCC(F)(F)F)C1"
  EXPERIMENTAL_ENDPOINT: "half-life at 1 μM"
  VALUE_COMPARATOR: "="
  RESULT_NUMBER: 3.2
